target: DrOTOP1 (Danio rerio); construct: A previously generated codon-optimized full-length DrOTOP1[8]; (UniProt: Q7ZWK8) construct; expressed in transfected cells; host or cells: HEK-293 (CRL-1573, ATCC); test: Whole-cell patch-clamp, inhibition of acid-evoked currents, WT DrOTOP1 expressed in HEK-293 cells; format: cell-based, zebrafish (Danio rerio); conditions: pH 5.5; WT DrOTOP1
Sequence (Q7ZWK8 whole entry): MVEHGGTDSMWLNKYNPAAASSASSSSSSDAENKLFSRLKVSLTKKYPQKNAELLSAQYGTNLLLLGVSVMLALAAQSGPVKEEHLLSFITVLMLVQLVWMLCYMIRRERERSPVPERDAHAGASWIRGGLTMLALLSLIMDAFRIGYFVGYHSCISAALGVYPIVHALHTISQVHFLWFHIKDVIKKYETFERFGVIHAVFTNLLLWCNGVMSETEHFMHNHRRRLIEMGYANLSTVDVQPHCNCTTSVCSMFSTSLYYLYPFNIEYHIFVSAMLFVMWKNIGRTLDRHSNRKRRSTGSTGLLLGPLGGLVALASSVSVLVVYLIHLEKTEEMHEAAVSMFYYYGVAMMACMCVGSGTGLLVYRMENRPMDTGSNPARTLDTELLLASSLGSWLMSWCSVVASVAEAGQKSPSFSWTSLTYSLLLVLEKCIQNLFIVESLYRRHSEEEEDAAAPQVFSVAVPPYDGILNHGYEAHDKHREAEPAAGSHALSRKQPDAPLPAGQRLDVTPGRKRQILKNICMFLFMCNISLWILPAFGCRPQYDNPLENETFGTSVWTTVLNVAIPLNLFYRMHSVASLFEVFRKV
pIC50: −log10 of the molar value.

>  <smiles representation>
C=C(C)COc1ccccc1NC(=O)c1nc[nH]c1C

>  <pIC50>
5.18

$$$$

* * *

biological target: DrOTOP1 G130W/E384A (Danio rerio, UniProt Q7ZWK8, E384A/G130W); construct: A previously generated codon-optimized full-length DrOTOP1[8]; (UniProt: Q7ZWK8) construct; test: Whole-cell patch-clamp, inhibition of acid-evoked currents, DrOTOP1 G130W/E384A; conditions: G130W/E384A; best-fit value, Top fitted, Bottom = 0; read-out: AbsoluteIC50
Sequence (Q7ZWK8 whole entry G130W/E384A): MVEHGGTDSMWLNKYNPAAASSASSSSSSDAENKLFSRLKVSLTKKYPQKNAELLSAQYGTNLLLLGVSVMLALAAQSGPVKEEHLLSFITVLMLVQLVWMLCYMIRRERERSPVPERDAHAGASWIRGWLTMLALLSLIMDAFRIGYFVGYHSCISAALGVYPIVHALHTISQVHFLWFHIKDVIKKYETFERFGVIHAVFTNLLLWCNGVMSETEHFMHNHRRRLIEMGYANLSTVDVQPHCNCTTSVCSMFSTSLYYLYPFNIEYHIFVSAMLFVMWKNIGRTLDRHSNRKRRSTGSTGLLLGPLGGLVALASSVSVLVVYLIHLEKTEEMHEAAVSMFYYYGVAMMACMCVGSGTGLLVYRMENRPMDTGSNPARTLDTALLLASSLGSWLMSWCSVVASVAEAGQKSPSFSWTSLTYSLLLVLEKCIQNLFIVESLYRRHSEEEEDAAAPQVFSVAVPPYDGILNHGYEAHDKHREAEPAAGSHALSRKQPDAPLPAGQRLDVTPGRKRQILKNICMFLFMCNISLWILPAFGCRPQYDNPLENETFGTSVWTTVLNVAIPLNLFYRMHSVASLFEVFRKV
pIC50: −log10 of the molar value.

>  <smiles representation>
C=C(C)COc1ccccc1NC(=O)c1nc[nH]c1C

>  <pIC50>
4.36

$$$$

Value source: paper PMC12549899
